# System: T-47D breast
# protocolDetails: NCI tumour cell line growth inhibition, 48 h
I'd appreciate it if you could supply TGI values for the items below.

Nc1nc(SCc2ccccc2Cl)cc(C(=O)O)n1	> 100 µM

For every record below, what is its TGI?
1. Cc1cc(S(=O)(=O)Nc2nncn2-c2ccc(Cl)cc2)c(S)cc1Cl
2. CCSc1nc(=S)n(-c2ccccc2)c(C)c1C(C)=O
3. CC(C)(C)NC(=O)/C(=C\Sc1ccccc1)c1ccccc1
4. S=c1nc(N/N=C/c2cccs2)c2cn[nH]c2[nH]1
5. CCOC(=O)[C@@]1(C)CC(O)C(=O)N1C (stereo partly specified)

Output:
1: > 10 µM; 2: > 100 µM; 3: > 100 µM; 4: > 100 µM; 5: > 100 µM

* * *

# Tested on: SF-295 CNS
# protocolDetails: NCI tumour cell line growth inhibition, 48 h
Please provide measured TGI for the entries that follow.
Numbers only, in µM.

# example entries with known answers
COC1=CC(=O)C=C(OC)C1=O	34.6
CN(C)CCOc1ccc(-c2c(Oc3ccccc3)c(=O)oc3ccccc23)cc1	17.2
O=C(Nc1ccccc1-c1nn(CN2CCNCC2)c(=S)n(CN2CCNCC2)c1=O)C(F)(F)F	76.5

Batch request: TGI for each of the following molecules.
1. COC(=O)[C@@H](C)[C@H]1CC[C@@](C)(CCC2=C(C)CC3C=C(C)CCC3C2(C)C)OO1 (some centres undefined)
2. C=C1C(=O)O[C@H]2[C@H]1CC/C(COC(=O)CCCc1c[nH]c3ccccc13)=C\CC[C@@]1(C)O[C@@H]21
3. COC1=C(C)C(=O)C2=C(C1=O)C1C3CC4=C(C(=O)C(OC)=C(C)C4=O)C(CNC(=O)C(C)O)N3C(C#N)C(C2)N1C (centres undefined)
4. O=C(/C=C1\C(=O)N(Cc2ccccc2)c2ccccc21)c1ccc(OCCN2CCCCC2)cc1
5. C=C1C(=O)O[C@H]2[C@H]1CC/C(COC(=O)OC/C1=C/CC[C@@]3(C)O[C@H]3[C@H]3OC(=O)[C@@H](CN(C)C)[C@@H]3CC1)=C\CC[C@@]1(C)O[C@@H]21

Output:
3.2
19
0.753
25.9
24.9

* * *

# System: IGROV1 ovarian
# protocolDetails: NCI tumour cell line growth inhibition, 48 h
parameterMeasured: TGI

CC(=O)O[C@H]1C[C@@H](OC(C)=O)[C@@](C)(O)[C@@H]2[C@@H](OC(C)=O)[C@@]3(O)[C@H](/C=C(/CO)[C@H]4O[C@H]4[C@@H](OC(C)=O)[C@@]12C)OC(=O)[C@@H]3C	> 25 µM
COC1CCC(OC)C(C2(C3CC(OC)CCC3OC)OC(=O)c3ccccc32)C1 (stereo unspecified)	> 100 µM
CCN(CC)CCn1c(=O)c2c(C)c3oc4ccccc4oc3c(C)c2c1=O	> 100 µM
CC1(C)C2CCC1C(=O)[C@@]1(C=CC(=O)CC1)C2 (stereo partly specified)	> 100 µM
O=C(Nc1ccccc1-c1nn(CN2CCNCC2)c(=S)n(CN2CCNCC2)c1=O)C(F)(F)F	46.5 µM

Next, consider the following compound.
Briefly, TGI measured for COC(=O)C(Cc1c[nH]c2ccccc12)NP(=O)(O)OCC1OC(n2cc(Br)c(=O)[nH]c2=O)CC1O (stereo unspecified) : > 100 µM

* * *

# Tested on: SN12C renal
# protocolDetails: NCI tumour cell line growth inhibition, 48 h
*1 amine or outer side, *2 acyl side, *3 side chain or, on linkers, in order; H or OH if unused. Where a SMILES comes first, the peptide text is derived from it. Bridges are numbered along the chain shown (N, C = ends). Roman numbers before positions name the chains, in order. [ ]: non-standard residue; d: D form. Actinocin(9to1) = Cc1c2oc3c(C)ccc(C(=O)[*:1])c3nc-2c(C(=O)[*:2])c(N)c1=O; Hyp = O=C(O)[CH]1C[CH](O)CN1; NMeV = CN[CH](C(=O)O)C(C)C; Sar = CNCC(=O)O
So I've got a bunch of compounds here, and I need their TGI values.

C=C1SC(=Nc2ccccc2Cl)N(C(=O)c2sc3ccccc3c2Cl)C12CCCCC2	> 100 µM
C=CCC1(C(=O)OC(C)(C)C)C(OC)=C(C(=O)OC(C)(C)C)C2C1C(C(=O)OC(C)(C)C)=C(OC)C2(CC=C)C(=O)OC(C)(C)C (centres undefined)	> 100 µM

For each entry beneath this line, provide reported TGI.
1. Cc1c2oc3c(C)ccc(C(=O)NC4C(=O)NC(C(C)C)C(=O)N5CC(O)CC5C(=O)N(C)CC(=O)N(C)C(C(C)C)C(=O)OC4C)c3nc-2c(C(=O)NC2C(=O)NC(C(C)C)C(=O)N3CC(O)CC3C(=O)N(C)CC(=O)N(C)C(C(C)C)C(=O)OC2C)c(N)c1=O (centres undefined) (I: TV[Hyp][Sar][NMeV] / II: TV[Hyp][Sar][NMeV]; ester I:1-I:C, II:1-II:C; linker I:N-II:N via Actinocin(9to1); configuration not given here)
2. c1ccc(Nc2nn3c(CCCCCCCCc4nnc5sc(Nc6ccccc6)nn45)nnc3s2)cc1

Output:
["> 1 µM", "> 100 µM"]

* * *

# Tested on: LOX IMVI melanoma
# protocolDetails: NCI tumour cell line growth inhibition, 48 h
*1 amine or outer side, *2 acyl side, *3 side chain or, on linkers, in order; H or OH if unused. Where a SMILES comes first, the peptide text is derived from it. Bridges are numbered along the chain shown (N, C = ends). Roman numbers before positions name the chains, in order. [ ]: non-standard residue; d: D form. Actinocin(9to1) = Cc1c2oc3c(C)ccc(C(=O)[*:1])c3nc-2c(C(=O)[*:2])c(N)c1=O; Hyp = O=C(O)[CH]1C[CH](O)CN1; NMeV = CN[CH](C(=O)O)C(C)C; Sar = CNCC(=O)O
Field: TGI. Provide a value for each of the compounds that follow.

O=C1CSC(c2ccc([N+](=O)[O-])cc2)N1c1ccc(-c2ccc(-n3c(-c4ccccc4)nc4ccccc4c3=O)cc2)cc1 (stereo not given)	> 100 µM
Cn1c2ccccc2c2cc(N3CCCC3)c3c(c21)C(=O)N(c1ccccc1)C3=O	> 100 µM

Could you tell me TGI for each of these compounds? They are listed below.
1. Cc1c2oc3c(C)ccc(C(=O)NC4C(=O)NC(C(C)C)C(=O)N5CC(O)CC5C(=O)N(C)CC(=O)N(C)C(C(C)C)C(=O)OC4C)c3nc-2c(C(=O)NC2C(=O)NC(C(C)C)C(=O)N3CC(O)CC3C(=O)N(C)CC(=O)N(C)C(C(C)C)C(=O)OC2C)c(N)c1=O (stereo not given) (I: TV[Hyp][Sar][NMeV] / II: TV[Hyp][Sar][NMeV]; ester I:1-I:C, II:1-II:C; linker I:N-II:N via Actinocin(9to1); configuration not given here)
2. COC(=O)Nc1nc2ccc(C(=O)c3ccccc3)cc2[nH]1
3. CCCCCCCCP(=O)(O)OP(=O)(O)OCC1OC(n2ccc(N)nc2=O)C(O)C1O (stereo not given)

Output:
["> 1 µM", "> 100 µM", "> 100 µM"]

* * *

# System: UO-31 renal
# protocolDetails: NCI tumour cell line growth inhibition, 48 h
Lab note: compare TGI against 20 µM. Equal or greater, write y. Smaller, write n.

Worked examples, 2 compounds total:
O=C(Nc1ccccc1-c1nn(CN2CCNCC2)c(=S)n(CN2CCNCC2)c1=O)C(F)(F)F	y
CCOC(=O)/C=C(\C(=O)OCC)n1cc(Cl)c(=O)n(CC(=O)OCC)c1=O	n

Task: Evaluate O=C(c1ccco1)c1c(C(F)(F)F)n([O-])c2cc(C(F)(F)F)ccc2[n+]1=O : TGI at minimum 20 µM?
Output: n

Task: Given COc1cc2c(cc1Oc1c(Oc3c(O)c(OC)cc4c3C(CC(C)C)N(C)CC4)c(OC)cc3c1C(CC(C)C)N(C)CC3)C(CC(C)C)N(C)CC2 (stereo unspecified) , state whether its TGI is at least 20 µM.
Output: n

Task: # bool: TGI of Cc1[nH]c(N)nc(=S)c1CCC(=O)O >= 20 µM
Output: y

Task: # check: TGI of CN(CCCNC(=O)c1nn(C)c2c1Cc1ccccc1-2)CCCNC(=O)c1nn(C)c2c1Cc1ccccc1-2 is greater than or equal to 20 µM
Output: n

Task: Is the recorded value of TGI equal to or greater than 20 µM for this compound? CCCCCCCC/C=C1\CCC(CN2CCOCC2)C1=O (stereo unspecified)
Output: n

* * *

Give measured log10(TGI) for each item. Keep answers brief.
# Test system: BT-549 breast
# protocolDetails: NCI tumour cell line growth inhibition, 48 h
// units: µM (pre-log); metric: TGI; scale: log10

// below: answered compounds
COc1cc(C(=O)O[C@H](C(=O)NCCN(C)CCNC(=O)[C@@H](OC(=O)c2cc(OC)cc3c(C)cccc23)[C@]2(C)CO2)[C@]2(C)CO2)c2cccc(C)c2c1	0.69
NC(N)=NC(N)=NCCCc1ccco1	2.18
COc1ccc(-c2ncn(C[Si](C)(C)C)c2-c2ccc(OC)cc2)cc1	1.86
CO[C@H]1C[C@](C)(O)Cc2cc3c(c(O)c21)C(=O)c1c(O)cc2c(c1C3=O)O[C@@H]1O[C@@]2(C)[C@H](O)[C@@H](N(C)C)[C@@H]1O	0.86

Provide log10(TGI) for all items below, preserving their order.
1. O=C(c1ccco1)c1c(C(F)(F)F)n([O-])c2cc(C(F)(F)F)ccc2[n+]1=O
2. C[C@]12CC[C@H]3[C@@H](CC4SC(N)=NC45C/C(=N/NC(N)=O)CC[C@]35C)[C@@H]1CCC2=O (stereo partly specified)
3. C=C1C(=O)O[C@H]2[C@H]1CC/C(Cn1cc(-c3ccc(F)cc3)nn1)=C\CC[C@@]1(C)O[C@@H]21

Output:
0.04
0.95
0.33
